assay_info: JN-170 plasma pharmacokinetics in C57Bl/6J mice, single oral dose
Assay type: in vivo, mouse
test_conditions: male, C57Bl/6J, mouse, plasma, oral, 250 mg/kg, 250 mg/kg oral, 8 h; individual C57Bl/6 mice; read-out: JN-170 plasma level (Fig 2a)
endpoint: concentration at 8 h (ng/mL)
The reply should contain only the number, in ng/mL.

Returns the measured concentration at 8 h for the input molecule. Input: N#Cc1ccc(-c2noc([C@]3(C(F)(F)F)CCN(C(=O)NCCC4(N)CC4)C3)n2)cc1 [JN-170]
3650

====

assay_info: JNT-517 plasma pharmacokinetics in healthy volunteers
Assay type: in vivo, human
test_conditions: human, plasma, oral; SAD 50 mg; %CV 35.4; read-out: Mean T1/2 (converted)
endpoint: half-life (h)
The reply should contain only the number, in h.

Returns the measured half-life for the input compound. Input: `NC(=O)N1CCC[C@@H](N(C(=O)NCc2ccc(OC(F)(F)F)cc2F)C2CC2)C1`
6.17

====

test_target: SLC6A19 (Homo sapiens, UniProt Q695T7)
Construct: human intestinal epithelial cells with endogenous expression levels of SLC6A19; tissue AnaBios
Sequence (Q695T7 whole entry): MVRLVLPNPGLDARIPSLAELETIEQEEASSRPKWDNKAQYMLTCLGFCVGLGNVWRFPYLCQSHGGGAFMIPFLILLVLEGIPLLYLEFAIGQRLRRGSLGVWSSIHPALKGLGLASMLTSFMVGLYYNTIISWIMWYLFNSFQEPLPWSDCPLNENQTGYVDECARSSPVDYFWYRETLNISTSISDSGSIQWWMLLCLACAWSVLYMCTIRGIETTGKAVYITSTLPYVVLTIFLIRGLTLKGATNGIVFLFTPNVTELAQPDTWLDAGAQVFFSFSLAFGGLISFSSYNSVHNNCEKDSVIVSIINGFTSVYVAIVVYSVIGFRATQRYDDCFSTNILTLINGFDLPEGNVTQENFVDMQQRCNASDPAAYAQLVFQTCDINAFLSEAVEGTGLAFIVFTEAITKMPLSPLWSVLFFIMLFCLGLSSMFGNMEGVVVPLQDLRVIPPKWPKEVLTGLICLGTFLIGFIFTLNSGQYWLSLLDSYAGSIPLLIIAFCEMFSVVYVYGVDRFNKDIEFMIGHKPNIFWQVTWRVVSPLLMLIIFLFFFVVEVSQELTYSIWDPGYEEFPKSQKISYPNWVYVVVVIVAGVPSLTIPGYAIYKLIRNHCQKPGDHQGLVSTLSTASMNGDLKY
Sequence (Q9BYF1 18-805 partner): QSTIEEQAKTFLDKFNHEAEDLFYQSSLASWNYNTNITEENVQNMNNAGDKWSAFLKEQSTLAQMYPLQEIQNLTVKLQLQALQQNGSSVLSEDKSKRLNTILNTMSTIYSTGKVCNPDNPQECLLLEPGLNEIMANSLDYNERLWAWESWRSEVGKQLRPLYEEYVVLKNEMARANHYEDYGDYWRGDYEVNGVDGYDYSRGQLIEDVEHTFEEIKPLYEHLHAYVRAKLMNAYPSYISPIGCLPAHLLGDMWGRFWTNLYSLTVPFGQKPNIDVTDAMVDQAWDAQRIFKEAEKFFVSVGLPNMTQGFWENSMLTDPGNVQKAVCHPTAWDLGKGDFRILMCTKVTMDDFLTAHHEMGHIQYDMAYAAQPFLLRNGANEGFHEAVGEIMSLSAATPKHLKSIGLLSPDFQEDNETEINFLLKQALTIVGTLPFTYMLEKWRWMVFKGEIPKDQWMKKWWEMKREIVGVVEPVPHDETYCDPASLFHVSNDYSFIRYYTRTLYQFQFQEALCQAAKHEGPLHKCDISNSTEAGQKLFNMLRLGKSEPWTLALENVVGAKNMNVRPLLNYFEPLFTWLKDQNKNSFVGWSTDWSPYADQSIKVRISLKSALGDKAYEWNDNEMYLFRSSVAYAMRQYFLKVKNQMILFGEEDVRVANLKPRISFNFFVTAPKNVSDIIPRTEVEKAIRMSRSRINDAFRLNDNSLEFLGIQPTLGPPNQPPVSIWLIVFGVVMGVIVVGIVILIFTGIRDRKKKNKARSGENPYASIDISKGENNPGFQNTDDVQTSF
assay_info: SLC6A19 glutamine transport assay in human postmortem intestinal epithelial cells
test_conditions: endogenous SLC6A19; geometric mean n = 5, 3 donors; 95% CI 33–197 nM
endpoint: IC50 (µM)
The reply should contain only the number, in µM.

Returns the measured IC50 for the input compound. Input: `NC(=O)N1CCC[C@@H](N(C(=O)NCc2ccc(OC(F)(F)F)cc2F)C2CC2)C1`
0.081

====

assay_info: JN-170 plasma pharmacokinetics in Pah^enu2 mice, single oral dose
Type: in vivo, mouse
test_conditions: male, BTBR-Pah<enu2>/J (Pah^enu2), mouse, plasma, oral, 200 mg/kg, 200 mg/kg oral, 3 h; individual Pah^enu2 mice; read-out: JN-170 plasma level (Fig 3a)
endpoint: concentration at 3 h (ng/mL)
The reply should contain only the number, in ng/mL.

Returns the measured concentration at 3 h for the input compound. Input: `N#Cc1ccc(-c2noc([C@]3(C(F)(F)F)CCN(C(=O)NCCC4(N)CC4)C3)n2)cc1`
8710

====

assay_info: JNT-517 plasma pharmacokinetics in healthy volunteers
Type: in vivo, human
test_conditions: human, plasma, oral; SAD 170 mg; %CV 24.7; read-out: Mean T1/2 (converted)
endpoint: half-life (min)
The reply should contain only the number, in min.

Returns the measured half-life for the input molecule. Input: NC(=O)N1CCC[C@@H](N(C(=O)NCc2ccc(OC(F)(F)F)cc2F)C2CC2)C1 [JNT-517]
362

====

assay_info: JNT-517 plasma pharmacokinetics in healthy volunteers
Format: in vivo, human
test_conditions: human, plasma, oral; SAD 100 mg; %CV 31.9; read-out: Mean T1/2 (converted)
endpoint: half-life
Answer with the number, then the unit.

Returns the measured half-life for the input compound. Input: NC(=O)N1CCC[C@@H](N(C(=O)NCc2ccc(OC(F)(F)F)cc2F)C2CC2)C1 [JNT-517]
353 min

====

assay_info: JN-170 plasma pharmacokinetics in Pah^enu2 mice, single oral dose
Type: in vivo, mouse
test_conditions: male, BTBR-Pah<enu2>/J (Pah^enu2), mouse, plasma, oral, 100 mg/kg, 100 mg/kg oral, 3 h; individual Pah^enu2 mice; read-out: JN-170 plasma level (Fig 3a)
endpoint: concentration at 3 h (ng/mL)
The reply should contain only the number, in ng/mL.

Returns the measured concentration at 3 h for the input compound. Input: `N#Cc1ccc(-c2noc([C@]3(C(F)(F)F)CCN(C(=O)NCCC4(N)CC4)C3)n2)cc1`
4240
